test system: human skin; test: Skin irritation test of active ingredient (patch method, CTFA guidelines); assay type: in vivo; settings: 1.0 wt %, 20 people, patch 24 hours; (−): No erythema or particularly no symptoms
MEASUREMENT_KIND: Test result(number of subject) (−)
In your answer, state the number alone without any accompanying words.

Below, each entry is followed by its recorded Test result(number of subject) (−) result.
- MOLECULE: "O=C(O)CN(CCN(CCN(CC(=O)O)CC(=O)O)CC(=O)O)CCN(CC(=O)O)CC(=O)O"
  Test result(number of subject) (−): 16
- MOLECULE: "NCCNCCNCCN [Trientine, Triethylenetetramine, reference compound]"
  Test result(number of subject) (−): 17
- MOLECULE: "C1CNCCNCCNCCN1"
  Test result(number of subject) (−): 18
- MOLECULE: "O=C(O)c1ccc(N2CCCN(c3ccc(C(=O)O)cc3)CCN(c3ccc(C(=O)O)cc3)CCCN(c3ccc(C(=O)O)cc3)CC2)cc1"
  Test result(number of subject) (−): 19

Quick one: Test result(number of subject) (−) for O=C(O)c1ccc(N(CCN(CCN(c2ccc(C(=O)O)cc2)c2ccc(C(=O)O)cc2)c2ccc(C(=O)O)cc2)CCN(c2ccc(C(=O)O)cc2)c2ccc(C(=O)O)cc2)cc1 ? 19

Field entry: O=C(O)c1ccc(N2CCCN(c3ccc(C(=O)O)o3)CCN(c3ccc(C(=O)O)o3)CCCN(c3ccc(C(=O)O)o3)CC2)o1 19

Field entry: O=C(O)c1cncc(N2CCN(c3cncc(C(=O)O)c3)CCN(c3cncc(C(=O)O)c3)CCN(c3cncc(C(=O)O)c3)CC2)c1 20

Field entry: O=C(O)c1ccc(N2CCN(c3ccc(C(=O)O)o3)CCN(c3ccc(C(=O)O)o3)CCN(c3ccc(C(=O)O)o3)CC2)o1 18

Field entry: O=C(O)c1ccc(N(CCN(CCN(c2ccc(C(=O)O)o2)c2ccc(C(=O)O)o2)c2ccc(C(=O)O)o2)CCN(c2ccc(C(=O)O)o2)c2ccc(C(=O)O)o2)o1 19

Field entry: O=C(O)c1ccc(N2CCN(c3ccc(C(=O)O)cc3)CCN(c3ccc(C(=O)O)cc3)CCN(c3ccc(C(=O)O)cc3)CC2)cc1 19

Field entry: O=C(O)CN1CCCN(CC(=O)O)CCN(CC(=O)O)CCCN(CC(=O)O)CC1 18

Field entry: O=C(O)c1cncc(N2CCCN(c3cncc(C(=O)O)c3)CCN(c3cncc(C(=O)O)c3)CCCN(c3cncc(C(=O)O)c3)CC2)c1 18

Field entry: O=C(O)CN1CCN(CC(=O)O)CCN(CC(=O)O)CCN(CC(=O)O)CC1 19

###

system: human skin; assay: Skin irritation test of active ingredient (patch method, CTFA guidelines); format: in vivo; details: 0.1 wt %, 20 people, patch 24 hours; (±): slightly reddish than the periphery
MEASUREMENT_KIND: Test result(number of subject) (±)
In your answer, state the number alone without any accompanying words.

Below, each entry is followed by its recorded Test result(number of subject) (±) result.
- GIVEN_SMILES: "O=C(O)c1ccc(N2CCCN(c3ccc(C(=O)O)o3)CCN(c3ccc(C(=O)O)o3)CCCN(c3ccc(C(=O)O)o3)CC2)o1"
  Test result(number of subject) (±): 0
- GIVEN_SMILES: "O=C(O)CN1CCN(CC(=O)O)CCN(CC(=O)O)CCN(CC(=O)O)CC1"
  Test result(number of subject) (±): 0
- GIVEN_SMILES: "O=C(O)c1cncc(N2CCCN(c3cncc(C(=O)O)c3)CCN(c3cncc(C(=O)O)c3)CCCN(c3cncc(C(=O)O)c3)CC2)c1"
  Test result(number of subject) (±): 0
- GIVEN_SMILES: "O=C(O)CN1CCCN(CC(=O)O)CCN(CC(=O)O)CCCN(CC(=O)O)CC1"
  Test result(number of subject) (±): 0
- GIVEN_SMILES: "O=C(O)c1ccc(N(CCN(CCN(c2ccc(C(=O)O)cc2)c2ccc(C(=O)O)cc2)c2ccc(C(=O)O)cc2)CCN(c2ccc(C(=O)O)cc2)c2ccc(C(=O)O)cc2)cc1"
  Test result(number of subject) (±): 0

Observed Test result(number of subject) (±) on human skin for O=C(O)c1ccc(N2CCCN(c3ccc(C(=O)O)cc3)CCN(c3ccc(C(=O)O)cc3)CCCN(c3ccc(C(=O)O)cc3)CC2)cc1 , please. 0

###

Measured Removal of Heavy metals Cu (%) accompanies every entry in the list below.
assay: Removal test of heavy metals of active ingredients (pig skin, ICP-MS): Cu; conditions: 0.1 wt % aqueous solution, contaminated pig skin
Field: numeric (%). Do not append units.

- COMPOUND: "O=C(O)c1ccc(N2CCCN(c3ccc(C(=O)O)o3)CCN(c3ccc(C(=O)O)o3)CCCN(c3ccc(C(=O)O)o3)CC2)o1"
  UNIT_OF_MEASURE: "%"
  Removal of Heavy metals Cu (%): 94.5
- COMPOUND: "NCCNCCNCCN [Trientine, Triethylenetetramine, reference compound]"
  UNIT_OF_MEASURE: "%"
  Removal of Heavy metals Cu (%): 92.6
- COMPOUND: "O=C(O)c1ccc(N2CCN(c3ccc(C(=O)O)o3)CCN(c3ccc(C(=O)O)o3)CCN(c3ccc(C(=O)O)o3)CC2)o1"
  UNIT_OF_MEASURE: "%"
  Removal of Heavy metals Cu (%): 94.3
- COMPOUND: "O=C(O)c1ccc(N2CCN(c3ccc(C(=O)O)cc3)CCN(c3ccc(C(=O)O)cc3)CCN(c3ccc(C(=O)O)cc3)CC2)cc1"
  UNIT_OF_MEASURE: "%"
  Removal of Heavy metals Cu (%): 94.1
- COMPOUND: "O=C(O)c1cncc(N2CCCN(c3cncc(C(=O)O)c3)CCN(c3cncc(C(=O)O)c3)CCCN(c3cncc(C(=O)O)c3)CC2)c1"
  UNIT_OF_MEASURE: "%"
  Removal of Heavy metals Cu (%): 93.8
- COMPOUND: "C1CNCCNCCNCCN1"
  UNIT_OF_MEASURE: "%"
  Removal of Heavy metals Cu (%): 93.1
- COMPOUND: "O=C(O)CN(CCN(CCN(CC(=O)O)CC(=O)O)CC(=O)O)CCN(CC(=O)O)CC(=O)O"
  UNIT_OF_MEASURE: "%"
  Removal of Heavy metals Cu (%): 95.2
- COMPOUND: "O=C(O)CN1CCN(CC(=O)O)CCN(CC(=O)O)CCN(CC(=O)O)CC1"
  UNIT_OF_MEASURE: "%"
  Removal of Heavy metals Cu (%): 94.6

Quick one: Removal of Heavy metals Cu (%) for O=C(O)CN1CCCN(CC(=O)O)CCN(CC(=O)O)CCCN(CC(=O)O)CC1 ? 94.3

Field entry: O=C(O)c1ccc(N(CCN(CCN(c2ccc(C(=O)O)cc2)c2ccc(C(=O)O)cc2)c2ccc(C(=O)O)cc2)CCN(c2ccc(C(=O)O)cc2)c2ccc(C(=O)O)cc2)cc1 93.5

Field entry: O=C(O)c1cncc(N2CCN(c3cncc(C(=O)O)c3)CCN(c3cncc(C(=O)O)c3)CCN(c3cncc(C(=O)O)c3)CC2)c1 93.8

Field entry: O=C(O)CN(CCN(CC(=O)O)CC(=O)O)CC(=O)O [1(EDTA), Ethylenediaminetetraacetic acid, reference compound] 86.5

Field entry: O=C(O)c1ccc(N(CCN(CCN(c2ccc(C(=O)O)o2)c2ccc(C(=O)O)o2)c2ccc(C(=O)O)o2)CCN(c2ccc(C(=O)O)o2)c2ccc(C(=O)O)o2)o1 92.5

Field entry: O=C(O)c1ccc(N2CCCN(c3ccc(C(=O)O)cc3)CCN(c3ccc(C(=O)O)cc3)CCCN(c3ccc(C(=O)O)cc3)CC2)cc1 94.1

###

tested on: human skin; test: Skin irritation test of active ingredient (patch method, CTFA guidelines); format: in vivo; conditions: 0.5 wt %, 20 people, patch 24 hours; (−): No erythema or particularly no symptoms
Measured Test result(number of subject) (−) accompanies every entry in the list below.
In your answer, state the number alone without any accompanying words.

Below, each entry is followed by its recorded Test result(number of subject) (−) result.
- MOLECULE: "O=C(O)CN(CCN(CCN(CC(=O)O)CC(=O)O)CC(=O)O)CCN(CC(=O)O)CC(=O)O [Embodiment 1]"
  VALUE: 19
- MOLECULE: "O=C(O)CN1CCCN(CC(=O)O)CCN(CC(=O)O)CCCN(CC(=O)O)CC1 [Embodiment 9]"
  VALUE: 20
- MOLECULE: "O=C(O)c1ccc(N2CCN(c3ccc(C(=O)O)o3)CCN(c3ccc(C(=O)O)o3)CCN(c3ccc(C(=O)O)o3)CC2)o1 [Embodiment 8]"
  VALUE: 20
- MOLECULE: "O=C(O)c1ccc(N2CCCN(c3ccc(C(=O)O)cc3)CCN(c3ccc(C(=O)O)cc3)CCCN(c3ccc(C(=O)O)cc3)CC2)cc1 [Embodiment 10]"
  VALUE: 20
- MOLECULE: "O=C(O)c1ccc(N2CCN(c3ccc(C(=O)O)cc3)CCN(c3ccc(C(=O)O)cc3)CCN(c3ccc(C(=O)O)cc3)CC2)cc1 [Embodiment 6]"
  VALUE: 20

Quick one: Test result(number of subject) (−) for C1CNCCNCCNCCN1 [Cyclen, 1,4,7,10-tetraazacyclododecane] ? 20

Field entry: O=C(O)c1ccc(N(CCN(CCN(c2ccc(C(=O)O)cc2)c2ccc(C(=O)O)cc2)c2ccc(C(=O)O)cc2)CCN(c2ccc(C(=O)O)cc2)c2ccc(C(=O)O)cc2)cc1 [Embodiment 2] 20

Field entry: O=C(O)c1cncc(N2CCN(c3cncc(C(=O)O)c3)CCN(c3cncc(C(=O)O)c3)CCN(c3cncc(C(=O)O)c3)CC2)c1 [Embodiment 7] 20

Field entry: O=C(O)c1ccc(N2CCCN(c3ccc(C(=O)O)o3)CCN(c3ccc(C(=O)O)o3)CCCN(c3ccc(C(=O)O)o3)CC2)o1 [Embodiment 12] 20
